# System: S. aureus USA 300
# protocol: Minimal inhibitory concentration, microbroth dilution
# Format: cell-based
# protocol-conditions: Staphylococcus aureus, USA300, read-out: Minimal Inhibitory Concentrations (μM) S. aureus USA 300, MIC
Numbered stars: 1 amine (or outer) side, 2 acyl side, 3 side chain; on linkers, the order of the positions; unused ones are H or OH. Bridge positions count the residues as written; N and C are the ends. Square brackets hold non-standard residues; d marks the D form. Peptide text beside a SMILES is read from it. * marks the point of attachment. Piperazine(2S-CO,4-Me) = CN1CCN[C@H](C(=O)O)C1; Phe(3-Me) = Cc1cccc(C[C@H](N)C(=O)O)c1; Pro(4R-Me) = C[C@H]1CN[C@H](C(=O)O)C1; Hyp = O=C(O)[C@@H]1C[C@@H](O)CN1; NH(4-Cl-phenyl) = Clc1ccc(N*)cc1; aThr = C[C@H](O)[C@H](N)C(=O)O; Pip = O=C(O)[C@@H]1CCCCN1; CO = O=C([*:1])[*:2]

>  <compound>
Cc1cccc(C[C@H](NC(=O)Nc2cccc(Cl)c2)C(=O)N[C@H]2COC(=O)[C@@H]3CCCN3C(=O)[C@H](C)NC(=O)[C@@H]3CCCCN3C(=O)[C@@H]3C[C@@H](O)CN3C2=O)c1

>  <MIC, µM>
10

$$$$
>  <compound>
Cc1cccc(C[C@H](NC(=O)Nc2ccc(Cl)cc2)C(=O)N[C@H]2COC(=O)[C@@H]3CCCN3C(=O)[C@H](C)NC(=O)[C@@H]3CCCCN3C(=O)[C@@H]3C[C@@H](O)CN3C2=O)c1

>  <MIC, µM>
2.5

$$$$
>  <compound>
Cc1cccc(C[C@H](NC(=O)Nc2ccc(Cl)cc2)C(=O)N[C@@H]2C(=O)N3CCC[C@H]3C(=O)N3CCCC[C@H]3C(=O)N[C@@H](C)C(=O)N3C[C@H](C)C[C@H]3C(=O)O[C@H]2C)c1 [Compound 63] ({NH(4-Cl-phenyl)-CO}-[Phe(3-Me)][aThr]P[Pip]A[Pro(4R-Me)]; ester 2-C)

>  <MIC, µM>
0.313

$$$$
>  <compound>
Cc1cccc(C[C@H](NC(=O)Nc2ccc(Cl)cc2)C(=O)N[C@@H]2C(=O)N3C[C@H](O)C[C@H]3C(=O)N3CCN(C)C[C@H]3C(=O)N[C@@H](C)C(=O)N3C[C@H](C)C[C@H]3C(=O)O[C@H]2C)c1 [Compound 68] ({NH(4-Cl-phenyl)-CO}-[Phe(3-Me)][aThr][Hyp][Piperazine(2S-CO,4-Me)]A[Pro(4R-Me)]; ester 2-C)

>  <MIC, µM>
0.625

$$$$

====

# protocol: Plasma protein binding, rapid equilibrium dialysis
# Type: in vitro ADME, mouse
# protocol-conditions: plasma binding, % Bound, mouse plasma
Numbered stars: 1 amine (or outer) side, 2 acyl side, 3 side chain; on linkers, the order of the positions; unused ones are H or OH. Bridge positions count the residues as written; N and C are the ends. Square brackets hold non-standard residues; d marks the D form. Peptide text beside a SMILES is read from it. * marks the point of attachment. Piperazine(2S-CO,4-Me) = CN1CCN[C@H](C(=O)O)C1; Phe(3,5-F2) = N[C@@H](Cc1cc(F)cc(F)c1)C(=O)O; Phe(3,5-Me2) = Cc1cc(C)cc(C[C@H](N)C(=O)O)c1; NH(1-Me-indolin-5-yl) = CN1CCc2cc(N*)ccc21; Morpholine(3S-CO) = O=C(O)[C@@H]1COCCN1; Phe(3-Me) = Cc1cccc(C[C@H](N)C(=O)O)c1; Pro(4R-Me) = C[C@H]1CN[C@H](C(=O)O)C1; X1 = O=C([C@@H]1CSCCN1[*:1])[*:2]; Hyp = O=C(O)[C@@H]1C[C@@H](O)CN1; NH(4-Me-phenyl) = Cc1ccc(N*)cc1; aThr = C[C@H](O)[C@H](N)C(=O)O; Pip = O=C(O)[C@@H]1CCCCN1; CO = O=C([*:1])[*:2]

>  <compound>
Cc1ccc(NC(=O)N[C@@H](Cc2cccc(C)c2)C(=O)N[C@@H]2C(=O)N3C[C@H](O)C[C@H]3C(=O)N3CCN(C)C[C@H]3C(=O)N[C@@H](C)C(=O)N3C[C@H](C)C[C@H]3C(=O)O[C@H]2C)cc1 [Compound 30] ({NH(4-Me-phenyl)-CO}-[Phe(3-Me)][aThr][Hyp][Piperazine(2S-CO,4-Me)]A[Pro(4R-Me)]; ester 2-C)

>  <Mouse [%]>
92.4

$$$$
>  <compound>
Cc1ccc(NC(=O)N[C@@H](Cc2cc(C)cc(C)c2)C(=O)N[C@@H]2C(=O)N3CCC[C@H]3C(=O)N3CCCC[C@H]3C(=O)N[C@@H](C)C(=O)N3C[C@H](C)C[C@H]3C(=O)O[C@H]2C)cc1 [Compound 2] ({NH(4-Me-phenyl)-CO}-[Phe(3,5-Me2)][aThr]P[Pip]A[Pro(4R-Me)]; ester 2-C)

>  <Mouse [%]>
99.2

$$$$
>  <compound>
Cc1ccc(NC(=O)N[C@@H](Cc2cccc(C)c2)C(=O)N[C@@H]2C(=O)N3C[C@H](O)C[C@H]3C(=O)N3CCSC[C@H]3C(=O)N[C@@H](C)C(=O)N3C[C@H](C)C[C@H]3C(=O)O[C@H]2C)cc1 [Compound 42] ({NH(4-Me-phenyl)-CO}-[Phe(3-Me)][aThr][Hyp][X1]A[Pro(4R-Me)]; ester 2-C)

>  <Mouse [%]>
97.4

$$$$
>  <compound>
Cc1ccc(NC(=O)N[C@@H](Cc2cccc(C)c2)C(=O)N[C@@H]2C(=O)N3CCC[C@H]3C(=O)N3CCCC[C@H]3C(=O)N[C@@H](C)C(=O)N3C[C@H](C)C[C@H]3C(=O)O[C@H]2C)cc1 [Compound 1] ({NH(4-Me-phenyl)-CO}-[Phe(3-Me)][aThr]P[Pip]A[Pro(4R-Me)]; ester 2-C)

>  <Mouse [%]>
98.9

$$$$
>  <compound>
C[C@@H]1C[C@H]2C(=O)O[C@@H](C)[C@H](NC(=O)[C@H](Cc3cc(F)cc(F)c3)NC(=O)Nc3ccc4c(c3)CCN4C)C(=O)N3CCC[C@H]3C(=O)N3CCOC[C@H]3C(=O)N[C@@H](C)C(=O)N2C1 [Compound 32] ({NH(1-Me-indolin-5-yl)-CO}-[Phe(3,5-F2)][aThr]P[Morpholine(3S-CO)]A[Pro(4R-Me)]; ester 2-C)

>  <Mouse [%]>
91.5

$$$$

====

# protocol: Microsomal metabolic stability
# Format: in vitro ADME, mouse
# protocol-conditions: CD-1, mouse, pH 7.4
# Description: Compounds were initially prepared by dissolving them into DMSO at a final concentration of 10 mM. NADPH regenerating solutions A and B and mouse liver microsomes (CD-1) were obtained from BD Gentest (Woburn, Mass.). […] Sample preparation for microsomal stability was modified from methods of Di, L., et al., Int J Pharm. […] The metabolic stability is evaluated via the half-life from least-squares fit of the multiple time points based on first-order kinetics.
Numbered stars: 1 amine (or outer) side, 2 acyl side, 3 side chain; on linkers, the order of the positions; unused ones are H or OH. Bridge positions count the residues as written; N and C are the ends. Square brackets hold non-standard residues; d marks the D form. Peptide text beside a SMILES is read from it. * marks the point of attachment. Piperazine(2S-CO,4-Me) = CN1CCN[C@H](C(=O)O)C1; Phe(3-Me) = Cc1cccc(C[C@H](N)C(=O)O)c1; NH(4-Cl-2-F-phenyl) = Fc1cc(Cl)ccc1N*; Pro(4R-Me) = C[C@H]1CN[C@H](C(=O)O)C1; Hyp = O=C(O)[C@@H]1C[C@@H](O)CN1; aThr = C[C@H](O)[C@H](N)C(=O)O; Pip = O=C(O)[C@@H]1CCCCN1; CO = O=C([*:1])[*:2]
assay-endpoint: Mouse (h)

>  <molecule>
Cc1cccc(C[C@H](NC(=O)Nc2ccc(Cl)cc2F)C(=O)N[C@H]2COC(=O)[C@@H]3C[C@@H](C)CN3C(=O)[C@H](C)NC(=O)[C@@H]3CN(C)CCN3C(=O)[C@@H]3CCCN3C2=O)c1 [Compound 13] ({NH(4-Cl-2-F-phenyl)-CO}-[Phe(3-Me)]SP[Piperazine(2S-CO,4-Me)]A[Pro(4R-Me)]; ester 2-C)

>  <assay-endpoint>
Mouse

>  <value-observed>
0.49

$$$$
>  <molecule>
Cc1cccc(C[C@H](NC(=O)Nc2ccc(Cl)cc2F)C(=O)N[C@@H]2C(=O)N3CCC[C@H]3C(=O)N3CCCC[C@H]3C(=O)N[C@@H](C)C(=O)N3C[C@H](C)C[C@H]3C(=O)O[C@H]2C)c1 [Compound 3] ({NH(4-Cl-2-F-phenyl)-CO}-[Phe(3-Me)][aThr]P[Pip]A[Pro(4R-Me)]; ester 2-C)

>  <assay-endpoint>
Mouse

>  <value-observed>
11.65

$$$$
>  <molecule>
Cc1cccc(C[C@H](NC(=O)Nc2ccc(Cl)cc2F)C(=O)N[C@@H]2C(=O)N3C[C@H](O)C[C@H]3C(=O)N3CCCC[C@H]3C(=O)N[C@@H](C)C(=O)N3C[C@H](C)C[C@H]3C(=O)O[C@H]2C)c1 [Compound 6] ({NH(4-Cl-2-F-phenyl)-CO}-[Phe(3-Me)][aThr][Hyp][Pip]A[Pro(4R-Me)]; ester 2-C)

>  <assay-endpoint>
Mouse

>  <value-observed>
4.61

$$$$
